# assayed_system: human GCN2 full-length protein (Homo sapiens, UniProt Q9P2K8)
# Construct: purchased Carna Biosciences, Inc
# Sequence (Q9P2K8 whole entry): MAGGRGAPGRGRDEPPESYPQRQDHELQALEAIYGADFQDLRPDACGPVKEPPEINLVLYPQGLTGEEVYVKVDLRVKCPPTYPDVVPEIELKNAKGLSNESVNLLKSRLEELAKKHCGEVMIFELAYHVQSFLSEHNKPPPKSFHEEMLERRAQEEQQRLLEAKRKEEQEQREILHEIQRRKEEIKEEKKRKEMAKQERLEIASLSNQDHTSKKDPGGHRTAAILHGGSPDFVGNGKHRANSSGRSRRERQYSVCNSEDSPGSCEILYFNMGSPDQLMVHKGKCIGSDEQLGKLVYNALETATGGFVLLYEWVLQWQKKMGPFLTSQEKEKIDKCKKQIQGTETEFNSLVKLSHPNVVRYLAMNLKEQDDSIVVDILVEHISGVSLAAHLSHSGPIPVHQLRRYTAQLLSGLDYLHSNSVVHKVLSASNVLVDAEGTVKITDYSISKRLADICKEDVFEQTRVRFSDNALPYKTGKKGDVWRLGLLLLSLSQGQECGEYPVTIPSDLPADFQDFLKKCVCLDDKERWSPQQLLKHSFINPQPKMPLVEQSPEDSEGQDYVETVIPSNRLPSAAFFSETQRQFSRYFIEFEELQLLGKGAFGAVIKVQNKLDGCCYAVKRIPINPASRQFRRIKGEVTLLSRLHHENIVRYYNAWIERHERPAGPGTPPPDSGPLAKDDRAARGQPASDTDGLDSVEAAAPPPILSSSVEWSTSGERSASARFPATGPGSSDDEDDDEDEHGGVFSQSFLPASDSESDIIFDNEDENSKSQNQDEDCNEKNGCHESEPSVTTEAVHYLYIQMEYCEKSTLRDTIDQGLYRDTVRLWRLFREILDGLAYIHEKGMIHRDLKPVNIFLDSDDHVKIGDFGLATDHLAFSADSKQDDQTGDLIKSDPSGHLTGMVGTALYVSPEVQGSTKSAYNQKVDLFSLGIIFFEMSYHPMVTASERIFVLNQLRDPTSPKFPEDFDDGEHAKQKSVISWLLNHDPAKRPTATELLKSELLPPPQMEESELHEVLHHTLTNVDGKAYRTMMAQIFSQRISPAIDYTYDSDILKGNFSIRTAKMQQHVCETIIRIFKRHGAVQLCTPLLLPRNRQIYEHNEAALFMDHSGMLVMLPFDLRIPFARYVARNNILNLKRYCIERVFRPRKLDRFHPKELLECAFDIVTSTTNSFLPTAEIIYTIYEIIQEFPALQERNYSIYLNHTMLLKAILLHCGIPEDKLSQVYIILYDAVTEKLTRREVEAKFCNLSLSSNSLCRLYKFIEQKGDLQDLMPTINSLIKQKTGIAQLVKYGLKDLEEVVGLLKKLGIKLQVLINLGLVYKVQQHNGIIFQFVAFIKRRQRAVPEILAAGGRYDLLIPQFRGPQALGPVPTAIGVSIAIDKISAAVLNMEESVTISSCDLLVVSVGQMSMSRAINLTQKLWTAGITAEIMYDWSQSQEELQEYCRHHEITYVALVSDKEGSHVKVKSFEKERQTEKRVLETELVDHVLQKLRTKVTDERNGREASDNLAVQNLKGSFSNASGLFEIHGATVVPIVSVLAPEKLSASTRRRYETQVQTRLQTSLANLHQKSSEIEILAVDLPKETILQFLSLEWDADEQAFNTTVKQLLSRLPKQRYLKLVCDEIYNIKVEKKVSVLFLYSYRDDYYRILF
# test_method_notes: GCN2 enzyme inhibition assay (LanthaScreen TR-FRET)
# Assay type: biochemical
# condition_parameters: GCN2 enzyme inhibitory activity at compound concentration of 3 μM; Table 3-2; read-out: inhibitory rate

# compound, inhibition at 3 µM [%]
measured = [
    ("Nc1ncc(C#Cc2c(F)ccc(NS(=O)(=O)c3cc(Cl)cnc3C(F)(F)F)c2F)cn1", 99),
    ("COc1c(CO)cc(Cl)cc1S(=O)(=O)Nc1ccc(F)c(C#Cc2cnc(N)c(C)n2)c1F", 99),
    ("Nc1ncc(C#Cc2c(F)ccc(NS(=O)(=O)c3cc(Cl)cc4c3OCC4O)c2F)cn1 (stereo not drawn)", 99),
    ("CNc1ncc(Cl)cc1S(=O)(=O)Nc1ccc(F)c(C#Cc2cnc(N[C@H](C)CO)nc2)c1F", 103),
    ("Nc1ncc(C#Cc2c(F)ccc(NS(=O)(=O)c3cc(Cl)cnc3OC(F)F)c2F)cn1", 99),
    ("O=S(=O)(Nc1ccc(F)c(C#Cc2cnc(N[C@H]3CC[C@H](O)CC3)nc2)c1F)c1cc(Cl)cc2c1OCC2O (stereo partly drawn)", 100),
    ("O=S(=O)(Nc1ccc(F)c(C#Cc2cnc(NC3COC3)nn2)c1F)c1cc(Cl)cc(CO)c1Cl", 102),
    ("O=S(=O)(Nc1ccc(F)c(C#Cc2cnc(NC3COC3)nc2)c1F)c1cc(Cl)cc(CO)c1Cl", 102),
    ("Cc1ncc(Cl)cc1S(=O)(=O)Nc1ccc(F)c(C#Cc2cnc(N[C@@H](C)CO)nc2)c1F", 98),
]
